Entries and their EC50 values follow.
test-target: HEK cells stably transfected with tetracycline inducible hNR1 and hNR2A (Homo sapiens, UniProt Q05586+Q12879)
Construct: expressed in transfected cells; host or cells: HEK cells, stably transfected, tetracycline/doxycycline inducible
Sequence (Q12879 23-1464, other chains not shown): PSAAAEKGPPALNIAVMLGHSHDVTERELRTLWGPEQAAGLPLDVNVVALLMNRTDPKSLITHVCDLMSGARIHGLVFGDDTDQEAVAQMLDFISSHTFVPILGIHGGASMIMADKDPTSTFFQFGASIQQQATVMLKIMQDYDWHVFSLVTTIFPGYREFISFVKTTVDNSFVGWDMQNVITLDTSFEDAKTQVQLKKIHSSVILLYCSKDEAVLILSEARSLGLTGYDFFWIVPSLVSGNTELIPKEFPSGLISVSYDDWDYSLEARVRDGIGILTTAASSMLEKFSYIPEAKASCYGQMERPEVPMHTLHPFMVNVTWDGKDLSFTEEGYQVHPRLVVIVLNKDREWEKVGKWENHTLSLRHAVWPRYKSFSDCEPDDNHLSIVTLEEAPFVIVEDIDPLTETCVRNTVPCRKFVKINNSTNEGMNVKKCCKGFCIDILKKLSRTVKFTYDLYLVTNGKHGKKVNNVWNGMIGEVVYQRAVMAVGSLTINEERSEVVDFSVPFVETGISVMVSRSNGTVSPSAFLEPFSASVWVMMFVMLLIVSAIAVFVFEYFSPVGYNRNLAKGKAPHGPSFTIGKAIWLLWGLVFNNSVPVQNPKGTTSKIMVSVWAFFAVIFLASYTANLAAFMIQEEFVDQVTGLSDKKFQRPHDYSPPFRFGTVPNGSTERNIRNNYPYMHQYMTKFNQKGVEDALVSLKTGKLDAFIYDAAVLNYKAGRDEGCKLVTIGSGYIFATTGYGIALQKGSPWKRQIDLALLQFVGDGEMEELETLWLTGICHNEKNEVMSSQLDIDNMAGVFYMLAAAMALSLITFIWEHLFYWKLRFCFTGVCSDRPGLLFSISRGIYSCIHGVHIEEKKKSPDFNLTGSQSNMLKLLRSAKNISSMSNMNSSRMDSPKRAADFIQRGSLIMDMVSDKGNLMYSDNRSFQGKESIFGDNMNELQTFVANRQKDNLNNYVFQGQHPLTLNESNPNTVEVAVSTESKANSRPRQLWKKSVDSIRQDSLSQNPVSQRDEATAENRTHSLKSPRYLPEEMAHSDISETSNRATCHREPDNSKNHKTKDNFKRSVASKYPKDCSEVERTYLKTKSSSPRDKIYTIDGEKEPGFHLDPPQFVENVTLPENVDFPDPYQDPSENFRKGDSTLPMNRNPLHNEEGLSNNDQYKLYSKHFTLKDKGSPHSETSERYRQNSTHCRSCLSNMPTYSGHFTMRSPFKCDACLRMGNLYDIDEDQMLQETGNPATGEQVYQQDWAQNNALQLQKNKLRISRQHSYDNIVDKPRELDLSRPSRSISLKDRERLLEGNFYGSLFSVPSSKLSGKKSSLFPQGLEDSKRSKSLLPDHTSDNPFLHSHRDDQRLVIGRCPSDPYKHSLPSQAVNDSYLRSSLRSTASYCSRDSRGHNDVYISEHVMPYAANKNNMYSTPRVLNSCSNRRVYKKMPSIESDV
test-protocol: Assay 1: Cell-Based Assay, cytosolic calcium response to positive allosteric modulators (with 30 μM glycine and 300 nM L-glutamate, EC30)
applied-conditions: Table 2; cytosolic calcium response, with 30 μM glycine and 300 nM L-glutamate (EC30); — = no plateau was reached
test-readout: EC50

INSERT INTO assay_data (compound, test_readout, measured) VALUES
  ('CC(C)c1sc2nc(Cn3nc(C(F)(F)F)cc3C3CC3)cc(=O)n2c1C1CC1CO (centres unmarked)', 'EC50', '1.4 µM'),
  ('CCN(Cc1cc(=O)n2c(C(O)C(F)(F)F)c(C)sc2n1)c1ccc(F)cc1 (centres unmarked)', 'EC50', '1.2 µM'),
  ('Cc1sc2nc(Cc3cccc(C#N)c3)cc(=O)n2c1C1CC1C#N (centres unmarked)', 'EC50', '18.1 µM'),
  ('Cc1sc2nc(Cn3nc(C4CC4)cc3C(F)(F)F)cc(=O)n2c1[C@@H]1C[C@H]1CO (relative stereo)', 'EC50', '2.5 µM'),
  ('CCN(Cc1cc(=O)n2c(-c3cscn3)c(C)sc2n1)c1ccc(F)cc1', 'EC50', '0.815 µM'),
  ('Cc1sc2nc(Cn3nc(C(F)(F)F)c(F)c3C3CC3)cc(=O)n2c1C1CC1CO (centres unmarked)', 'EC50', '3.1 µM'),
  ('C=C(C)c1c(C)sc2nc(CN(CC)c3ccc(F)cc3)cc(=O)n12', 'EC50', '0.445 µM'),
  ('CCN(Cc1cc(=O)n2c(C(F)CCO)c(C)sc2n1)c1ccc(F)cc1 (centres unmarked)', 'EC50', '0.27 µM'),
  ('CCN(Cc1cc(=O)n2c3c(sc2n1)CCC3CCO)c1ccc(F)cc1 (centres unmarked)', 'EC50', '1.1 µM'),
  ('CNC(=O)c1c(C)sc2nc(Cc3cccc(Cl)c3F)cc(=O)n12', 'EC50', '11 µM'),
  ('Cc1sc2nc(Cc3ccc(F)c(C#N)c3)cc(=O)n2c1[C@@H]1C[C@H]1CO (relative stereo)', 'EC50', '13.9 µM'),
  ('CCN(Cc1cc(=O)n2c(C3CCCC3)c(C)sc2n1)c1ccc(F)cc1', 'EC50', '7 µM'),
  ('CCN(Cc1cc(=O)n2c(-c3cncnc3)c(C)sc2n1)c1ccc(F)cc1', 'EC50', '0.56 µM'),
  ('CCN(Cc1cc(=O)n2c(-c3ccnnc3)c(C)sc2n1)c1ccc(F)cc1', 'EC50', '4.3 µM'),
  ('Cc1sc2nc(COc3ccc(F)cc3)cc(=O)n2c1C(C)CCO (centres unmarked)', 'EC50', '13.8 µM'),
  ('CNC(=O)c1c(C)sc2nc(Cc3cccc(Cl)c3)cc(=O)n12', 'EC50', '14.3 µM'),
  ('CCNC(=O)c1csc2nc(Cn3nc(C(F)(F)F)cc3C3CC3)cc(=O)n12', 'EC50', '10.6 µM');

----------
Reported EC50 is given for each of the following compounds.
test-target: HEK cells stably transfected with tetracycline inducible hNR1 and hNR2A (Homo sapiens, UniProt Q05586+Q12879)
Construct: expressed in transfected cells; host or cells: HEK cells, stably transfected, tetracycline/doxycycline inducible
test-protocol: Assay 1: Cell-Based Assay, cytosolic calcium response to positive allosteric modulators (with 30 μM glycine and 300 nM L-glutamate, EC30)
applied-conditions: Table 2; cytosolic calcium response, with 30 μM glycine and 300 nM L-glutamate (EC30); — = no plateau was reached
test-readout: EC50 (µM)

INSERT INTO measurements (compound, reading_unit, measured) VALUES
  ('CCN(Cc1cc(=O)n2cc(C)sc2n1)c1ccccc1 [Example 11.6]', 'µM', 5),
  ('Cc1sc2nc(COc3ccc(F)cc3)cc(=O)n2c1C1CC1CF (stereo not shown) [Example 4.28]', 'µM', 3.4),
  ('Cc1sc2nc(C(C)n3nc(C(F)(F)F)cc3C3CC3)cc(=O)n2c1[C@@H]1C[C@H]1CO (relative stereo) [Example 19.1]', 'µM', 12.2),
  ('CCNC(=O)c1c(C)sc2nc(Cc3cccc(C#N)c3F)c(F)c(=O)n12 [Example 21.28]', 'µM', 11.4);
